Sourced from ChEMBL document CHEMBL4627356

Below: a set of entries, each annotated with reported Ki.
- TARGET OR TEST SYSTEM: Adenosine receptor A2a (Homo sapiens)
- Sequence (P29274 whole entry): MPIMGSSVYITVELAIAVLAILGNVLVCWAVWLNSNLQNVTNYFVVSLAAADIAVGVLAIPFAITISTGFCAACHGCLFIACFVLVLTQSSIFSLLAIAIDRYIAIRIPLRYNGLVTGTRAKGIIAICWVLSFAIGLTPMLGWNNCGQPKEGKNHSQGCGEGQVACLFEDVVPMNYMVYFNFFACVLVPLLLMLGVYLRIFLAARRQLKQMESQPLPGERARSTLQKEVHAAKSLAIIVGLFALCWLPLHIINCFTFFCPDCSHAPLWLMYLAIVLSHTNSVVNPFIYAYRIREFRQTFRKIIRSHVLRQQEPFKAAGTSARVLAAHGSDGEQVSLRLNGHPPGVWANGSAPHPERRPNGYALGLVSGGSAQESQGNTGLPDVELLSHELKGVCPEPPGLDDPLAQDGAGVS
Please reply with the bare figure in nM and do not write the unit itself.

| MOLECULE | UNIT DESCRIPTOR | Ki |
| --- | --- | --- |
| Nc1nc(-c2ccc(OCCN3CCCC3)cc2)cn2c(=O)n(-c3ccccc3)nc12 | nM | 230 |
| Nc1nc(-c2ccc(NC(=O)CCN3CCN(CCO)CC3)cc2)cn2c(=O)n(-c3ccccc3)nc12 | nM | 7.27 |
| Nc1nc(-c2ccc(NC(=O)CCN3CCN(c4ccccc4)CC3)cc2)cn2c(=O)n(-c3ccccc3)nc12 | nM | 11.8 |
| Nc1nc(-c2ccc(OCC(O)CO)cc2)cn2c(=O)n(-c3ccccc3)nc12 (configuration not stated) | nM | 355 |
| NCC1CCN(CCC(=O)Nc2ccc(-c3cn4c(=O)n(-c5ccccc5)nc4c(N)n3)cc2)CC1 | nM | 123 |

Ask: Give the measured Ki of `Nc1nc(-c2ccc(OCCO)cc2)cn2c(=O)n(-c3ccccc3)nc12` .
Reply: 250

----------
Reported pKi values for a set of molecules
Target chain: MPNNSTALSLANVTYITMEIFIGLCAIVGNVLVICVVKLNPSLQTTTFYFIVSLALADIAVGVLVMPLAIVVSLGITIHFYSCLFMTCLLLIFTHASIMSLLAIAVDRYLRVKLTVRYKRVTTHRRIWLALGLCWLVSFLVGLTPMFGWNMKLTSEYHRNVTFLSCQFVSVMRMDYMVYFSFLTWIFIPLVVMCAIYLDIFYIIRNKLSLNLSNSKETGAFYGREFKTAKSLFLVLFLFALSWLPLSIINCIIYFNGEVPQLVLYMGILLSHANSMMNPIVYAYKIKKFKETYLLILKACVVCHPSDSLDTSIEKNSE
To interpret pKi, take it as minus log10 of a concentration measured in moles per litre.

| MOLECULE | pKi |
| --- | --- |
| Nc1nc(-c2ccc(NC(=O)CCN3CCCC3)cc2)cn2c(=O)n(-c3ccccc3)nc12 | 5.99 |
| Nc1nc(-c2ccc(OCC(O)CN3CCOCC3)cc2)cn2c(=O)n(-c3ccccc3)nc12 (stereo unspecified) | 6.11 |
| Nc1nc(-c2ccc(NC(=O)CCN3CCN(CCO)CC3)cc2)cn2c(=O)n(-c3ccccc3)nc12 | 5.61 |

Ask: What measured pKi goes with `Nc1nc(-c2ccc(NC(=O)CCN3CCCCC3)cc2)cn2c(=O)n(-c3ccccc3)nc12` ?
Reply: 5.93

Ask: Please give the result for Nc1nc(-c2ccc(OCC(O)CN3CCCCC3)cc2)cn2c(=O)n(-c3ccccc3)nc12 (stereo unspecified) too.
Reply: 6.31

Ask: Now the molecule `Nc1nc(-c2ccc(NC(=O)CCN3CCN(c4ccccc4)CC3)cc2)cn2c(=O)n(-c3ccccc3)nc12`
Reply: 5.47

----------
# pKi listing for each entry below
Target chain: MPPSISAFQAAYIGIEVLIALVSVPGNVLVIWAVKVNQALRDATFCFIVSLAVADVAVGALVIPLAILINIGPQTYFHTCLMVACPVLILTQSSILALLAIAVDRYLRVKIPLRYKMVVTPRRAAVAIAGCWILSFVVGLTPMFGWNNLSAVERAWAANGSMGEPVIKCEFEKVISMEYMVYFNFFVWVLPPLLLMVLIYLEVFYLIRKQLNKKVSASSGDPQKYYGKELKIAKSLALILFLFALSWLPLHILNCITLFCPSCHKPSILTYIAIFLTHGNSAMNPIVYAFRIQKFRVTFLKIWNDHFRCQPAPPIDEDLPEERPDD
Friendly reminder that pKi comes from taking -log10 of the concentration in mol/L.

Solved cases (4 shown):
| MOLECULE SMILES | pKi |
| --- | --- |
| Nc1nc(-c2ccc(NC(=O)CCN3CCN(CCO)CC3)cc2)cn2c(=O)n(-c3ccccc3)nc12 | 6.26 |
| Nc1nc(-c2ccc(OCCN3CCCC3)cc2)cn2c(=O)n(-c3ccccc3)nc12 | 6.06 |
| CN1CCN(CCOc2ccc(-c3cn4c(=O)n(-c5ccccc5)nc4c(N)n3)cc2)CC1 | 6.29 |
| Nc1nc(-c2ccc(NC(=O)CCN3CCCCC3)cc2)cn2c(=O)n(-c3ccccc3)nc12 | 6.21 |

// below: pKi requested for another compound
Ask: Quick one: pKi for `NCC1CCN(CCC(=O)Nc2ccc(-c3cn4c(=O)n(-c5ccccc5)nc4c(N)n3)cc2)CC1` ?
Reply: 6.42

----------
// pKi lookup, one value per entry
- TARGET OR TEST SYSTEM: UniProt P30542
- Sequence (P30542 whole entry): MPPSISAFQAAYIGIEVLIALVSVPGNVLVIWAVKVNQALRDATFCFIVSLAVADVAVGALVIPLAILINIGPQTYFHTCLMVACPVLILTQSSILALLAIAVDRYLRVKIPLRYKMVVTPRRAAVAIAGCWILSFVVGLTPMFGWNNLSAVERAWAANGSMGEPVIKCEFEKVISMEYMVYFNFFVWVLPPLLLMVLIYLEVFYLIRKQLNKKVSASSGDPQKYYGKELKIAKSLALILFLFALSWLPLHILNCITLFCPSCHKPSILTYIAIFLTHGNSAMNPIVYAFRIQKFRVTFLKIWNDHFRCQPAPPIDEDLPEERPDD
Quick note: pKi means taking -log10 of the concentration in moles per liter.

| MOLECULE | REPORTED MEASUREMENT |
| --- | --- |
| Nc1nc(-c2ccc(NC(=O)CCN3CCOCC3)cc2)cn2c(=O)n(-c3ccccc3)nc12 | 6.23 |

Ask: Quick check: pKi of Nc1nc(-c2ccc(OCC(O)CN3CCCCC3)cc2)cn2c(=O)n(-c3ccccc3)nc12 (centres undefined) ?
Reply: 6.47

Ask: Next: `NC(=O)C1CCN(CCC(=O)Nc2ccc(-c3cn4c(=O)n(-c5ccccc5)nc4c(N)n3)cc2)CC1`
Reply: 6.43

Ask: Same lookup for `Nc1nc(-c2ccc(OCCN3CCCCC3)cc2)cn2c(=O)n(-c3ccccc3)nc12` , please.
Reply: 6.44
